target: DDR2 (human); test: radiometric filter-binding kinase assay, Kinase HotSpot; conditions: compound 0.5 µM; ATP 10 µM
quantity: residual activity (%)
Give a bare numeral; the unit % is implied.

Use these answered entries as a reference point.
COc1ccc2c(c1)/C(=C/c1cnc[nH]1)C(O)=N2; 95.5
Cn1c2ccccc2c2c3c(c4c5ccccc5n(CCC#N)c4c21)CNC3=O; 73.3
COc1ccc(C(=O)Nc2sc3c(c2C(N)=O)CCCC3)cc1OC; 102

stdin: Could you tell me which residual activity is on file for `NC(=O)c1cccc(-c2cc(Nc3ccc(OC(F)(F)F)cc3)ncn2)c1` ?
stdout: 108

stdin: # repeat for `c1ccc2c(-c3ccncc3)c[nH]c2c1`
stdout: 92.6

stdin: Please do the same for `COc1ccc2c(c1)c(C1=C(c3c[nH]c4ccccc34)C(=O)NC1=O)cn2CCCN(C)C` as well.
stdout: 101

====

In this section we review reported residual activity values for a set of compounds.
biological target: UniProt Q9P286; assay: radiometric filter-binding kinase assay, Kinase HotSpot; settings: compound 0.5 µM; ATP 10 µM
Sequence (Q9P286 whole entry, looked up): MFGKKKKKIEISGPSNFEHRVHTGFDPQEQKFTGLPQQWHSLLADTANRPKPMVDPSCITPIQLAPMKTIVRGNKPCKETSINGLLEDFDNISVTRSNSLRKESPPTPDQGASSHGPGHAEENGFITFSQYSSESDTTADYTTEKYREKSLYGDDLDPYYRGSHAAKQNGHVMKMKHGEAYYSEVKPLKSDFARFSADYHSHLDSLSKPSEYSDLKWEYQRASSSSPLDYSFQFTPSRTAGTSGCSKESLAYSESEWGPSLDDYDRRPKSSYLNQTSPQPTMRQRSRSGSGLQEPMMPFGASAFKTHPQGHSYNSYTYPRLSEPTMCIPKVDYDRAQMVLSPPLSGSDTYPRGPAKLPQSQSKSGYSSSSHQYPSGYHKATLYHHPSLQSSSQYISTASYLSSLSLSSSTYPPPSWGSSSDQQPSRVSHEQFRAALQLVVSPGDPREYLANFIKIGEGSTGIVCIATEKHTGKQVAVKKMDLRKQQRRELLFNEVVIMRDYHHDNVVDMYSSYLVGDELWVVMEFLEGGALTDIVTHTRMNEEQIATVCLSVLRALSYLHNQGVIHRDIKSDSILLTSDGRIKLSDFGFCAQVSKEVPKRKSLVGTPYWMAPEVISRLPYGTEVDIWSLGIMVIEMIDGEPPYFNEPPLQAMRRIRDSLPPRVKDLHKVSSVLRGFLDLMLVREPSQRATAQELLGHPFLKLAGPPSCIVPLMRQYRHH
Use % as the unit, but write only the number.

Before answering, review these 5 worked examples.
CC(C)(C)c1cc(C=C(C#N)C#N)cc(Br)c1O; 119
COc1ccc(C(=O)Nc2sc3c(c2C(N)=O)CCCC3)cc1OC; 96.6
O=C1NC(=O)c2c1c1c3ccccc3[nH]c1n1cncc21; 80
N#C/C(=C\c1ccc(O)c(O)c1)C(=O)NCc1ccccc1; 96.1
CO[C@@H]1[C@H](N(C)C(=O)c2ccccc2)C[C@H]2O[C@]1(C)n1c3ccccc3c3c4c(c5c6ccccc6n2c5c31)C(=O)NC4; 90.4

stdin: Form field: reported residual activity of `COc1ccc2c(c1)c(C1=C(c3c[nH]c4ccccc34)C(=O)NC1=O)cn2CCCN(C)C`
stdout: 67.6

stdin: One more compound: `Ic1cccc(CSc2nnc(-c3ccncc3)o2)c1`
stdout: 99.3

stdin: For `C[C@@H]1CCN(C(=O)CC#N)C[C@@H]1N(C)c1ncnc2[nH]ccc12` then?
stdout: 93.6

====

molecular target: AURKC (human) (UniProt Q9UQB9); assay: radiometric filter-binding kinase assay, Kinase HotSpot; conditions: compound 0.5 µM; ATP 10 µM
Sequence (Q9UQB9 whole entry, looked up): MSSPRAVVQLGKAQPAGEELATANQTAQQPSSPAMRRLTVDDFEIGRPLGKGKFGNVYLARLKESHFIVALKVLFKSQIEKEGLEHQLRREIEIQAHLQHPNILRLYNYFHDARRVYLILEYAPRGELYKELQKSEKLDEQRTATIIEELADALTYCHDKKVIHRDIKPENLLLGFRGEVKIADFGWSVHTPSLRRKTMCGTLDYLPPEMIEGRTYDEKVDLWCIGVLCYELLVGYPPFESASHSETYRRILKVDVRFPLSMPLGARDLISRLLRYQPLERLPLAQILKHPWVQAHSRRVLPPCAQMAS
I'd appreciate it if you marked entries Fulfilled when residual activity is lower than 90% and Not fulfilled when it is not.

C[C@@H]1CCN(C(=O)CC#N)C[C@@H]1N(C)c1ncnc2[nH]ccc12; Fulfilled
Cc1cncc2cccc(S(=O)(=O)N3CCCN(C(=O)CN)C[C@H]3C)c12; Fulfilled
O=C(c1cc2cc(O)ccc2[nH]1)c1cc2cc(O)ccc2[nH]1; Fulfilled
Fc1ccc(-c2nc3n(c2-c2ccncc2)CCS3)cc1; Not fulfilled
O=C1Nc2ccc(Br)cc2/C1=C\c1cc2c([nH]1)CCCC2; Fulfilled

stdin: I'd appreciate it if you could check whether `Cc1nc(-c2ccccc2)c(-c2ccncc2)o1` has residual activity smaller than 90%.
stdout: Not fulfilled

stdin: Now the molecule `CN(C)S(=O)(=O)c1ccc2c(c1)/C(=C/c1cc3c([nH]1)CCCC3)C(=O)N2`
stdout: Fulfilled

stdin: What do we get for `CCCCc1c(-c2ccc(OC)cc2)[nH]c2nccnc12` ?
stdout: Fulfilled

====

Documented residual activity across a set of compounds
molecular target: PHKG2 (human); test: radiometric filter-binding kinase assay, Kinase HotSpot; conditions: compound 0.5 µM; ATP 10 µM
Write the number in % without appending the unit.

Example entries and their recorded answers appear below.
COc1ccc2c(c1)c(C1=C(c3c[nH]c4ccccc34)C(=O)NC1=O)cn2CCCN(C)C; 98.3
O=C1C(Cl)=C(N2C(=O)CCC2=O)C(=O)c2ccccc21; 100
CS(=O)(=O)CCNCc1ccc(-c2ccc3ncnc(Nc4ccc(OCc5cccc(F)c5)c(Cl)c4)c3c2)o1; 99.5
N#Cc1c[nH]c2c[nH]/c(=N\Cc3cccnc3)cc2/c1=N\c1ccc(F)c(Cl)c1; 88.3

Pending compound:
stdin: Record request: residual activity value, item `Cc1cccc(-c2nc(C(C)(C)C)[nH]c2-c2ccc3c(c2)OCO3)n1`
stdout: 107

Values were extracted from the kinase profiling compilation of Christmann-Franck et al. (2016).
